- MEASUREMENT TARGET: HIV reverse transcriptase (RNase H activity) (Human immunodeficiency virus type 1 group M subtype B)
- Construct: HIV reverse transcriptase has an RNase H domain at the C-terminus of its p66 subunit
- PROTOCOL DETAILS: Inhibition of RNase H / HIV reverse transcriptase (fluorescent probe-target hybrid assay)
- ASSAY CONDITIONS: Table I
Sorting guide: entries reporting IC50 beneath 50 µM go in the met pile, the rest go in the not met pile.

Field: example entries. Status: answers known.
CC1(c2ccccc2)NC(=O)N(C(=O)/C=C/c2ccc(F)c(C(F)(F)F)c2)C1=O (stereo not shown) = not met
O=C1NC(c2ccccc2)(c2ccccc2)C(=O)N1CCCBr = not met
CC1(c2ccccc2)NC(=O)N(C(=O)/C=C/c2ccc(Cl)c(Cl)c2)C1=O (stereo not shown) = not met
O=C1NC(=O)C(=Cc2cc(Cl)cc(Cl)c2O)N1 = not met

Please indicate whether the reported IC50 of CC1(C)SC2C(NC(=O)C(NC(=O)CN3C(=O)NC(c4ccccc4)(c4ccccc4)C3=O)c3ccccc3)C(=O)N2C1C(=O)O (stereo not shown) is strictly below 50 µM. met

Field: below-cutoff. Rule: recorded IC50 strictly less than 50 µM. Subject: CC1(c2ccccc2)NC(=O)N(C(=O)/C=C/c2ccccc2)C1=O (stereo not shown) met
